The reported numbers originate from paper PMC2900200.

Target: T1, Methuselah (Mth) ectodomain, C-terminal biotinylated (Drosophila melanogaster)
T1 sequence (O97148 whole entry, looked up): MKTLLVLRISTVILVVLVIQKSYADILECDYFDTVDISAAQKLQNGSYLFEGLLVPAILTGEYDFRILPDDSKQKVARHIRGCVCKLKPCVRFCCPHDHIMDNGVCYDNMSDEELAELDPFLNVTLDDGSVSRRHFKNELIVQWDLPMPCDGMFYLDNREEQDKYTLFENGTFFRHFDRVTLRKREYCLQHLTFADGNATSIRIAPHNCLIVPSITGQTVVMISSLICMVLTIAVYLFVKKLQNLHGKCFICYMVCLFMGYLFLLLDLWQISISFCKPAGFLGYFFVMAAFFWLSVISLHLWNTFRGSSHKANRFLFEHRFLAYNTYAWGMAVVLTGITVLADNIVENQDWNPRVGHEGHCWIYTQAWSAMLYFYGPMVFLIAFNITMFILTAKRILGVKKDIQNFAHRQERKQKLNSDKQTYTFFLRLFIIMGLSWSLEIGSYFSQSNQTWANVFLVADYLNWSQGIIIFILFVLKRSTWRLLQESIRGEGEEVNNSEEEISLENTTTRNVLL
Experiment: SPR
readoutLabel: Kd

[[record]]
binder = "Ac-FPSSFLQRYYLAKRR-NH2 [LP1 W5F mutant peptide]"
readoutlabel = "Kd"
measuredvalue = "12000 nM"

[[record]]
binder = "Ac-FPSSWLQRFYLAKRR-NH2 [LP1 Y9F mutant peptide]"
readoutlabel = "Kd"
measuredvalue = "49.5 nM"

[[record]]
binder = "Ac-FPSSKLQRYYLAKRR-NH2 [LP1 W5K mutant peptide]"
readoutlabel = "Kd"
measuredvalue = "> 15000 nM"

[[record]]
binder = "Ac-FPSSWLQRYYLAKRQ-NH2 [LP1 R15Q mutant peptide]"
readoutlabel = "Kd"
measuredvalue = "37.7 nM"

[[record]]
binder = "Ac-FPSSWLQRYYLAKRR-NH2 [LP1 peptide (wild type)]"
readoutlabel = "Kd"
measuredvalue = "18.5 nM"

[[record]]
binder = "Ac-FPSSWLQRYYQAKRR-NH2 [LP1 L11Q mutant peptide]"
readoutlabel = "Kd"
measuredvalue = "24.5 nM"

